TARGET: Recombinant human Mat2a (Homo sapiens (Human), UniProt P31153)
Sequence (P31153 whole entry): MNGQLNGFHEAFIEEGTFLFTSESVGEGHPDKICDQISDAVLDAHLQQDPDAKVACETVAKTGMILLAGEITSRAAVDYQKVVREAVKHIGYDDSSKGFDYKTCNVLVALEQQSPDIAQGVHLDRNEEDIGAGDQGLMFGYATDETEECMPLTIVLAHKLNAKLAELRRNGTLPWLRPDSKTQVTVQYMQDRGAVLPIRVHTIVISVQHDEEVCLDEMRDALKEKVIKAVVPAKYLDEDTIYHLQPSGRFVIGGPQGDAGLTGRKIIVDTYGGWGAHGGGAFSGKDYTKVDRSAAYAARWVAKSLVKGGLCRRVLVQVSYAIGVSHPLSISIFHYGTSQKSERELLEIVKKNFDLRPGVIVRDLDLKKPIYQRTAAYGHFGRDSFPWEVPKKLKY
METHOD_SUMMARY: Determination of Mat2A activity: 384 well format absorbance-based Mat2A inhibition assay
EXPERIMENTAL_CONTEXT: 12.5 nM Mat2A, 100 μM ATP and Methionine, 2% DMSO, 120 minutes at RT, Biomol Green, absorbance at 635 nm
Hi there, I'd appreciate the recorded IC50 for every entry that follows.
One number for each entry, in nM.

Batch request: IC50 per item, same order as input.
1. Nc1nn(C(=O)c2cccnc2Cl)c2nc(C3CC3)ccc12
2. Cc1ccccc1C(=O)n1nc(N)c2ccc(C3=CCCC3)nc21
3. COc1ncccc1C(=O)n1nc(N)c2ccc(C3CC3)nc21

Result:
17
53
26

Cited source for all entries: patent US20230382911A1
